Target: Protein deacetylase HDAC6 (Homo sapiens, UniProt Q9UBN7)
Sequence (Q9UBN7 whole entry): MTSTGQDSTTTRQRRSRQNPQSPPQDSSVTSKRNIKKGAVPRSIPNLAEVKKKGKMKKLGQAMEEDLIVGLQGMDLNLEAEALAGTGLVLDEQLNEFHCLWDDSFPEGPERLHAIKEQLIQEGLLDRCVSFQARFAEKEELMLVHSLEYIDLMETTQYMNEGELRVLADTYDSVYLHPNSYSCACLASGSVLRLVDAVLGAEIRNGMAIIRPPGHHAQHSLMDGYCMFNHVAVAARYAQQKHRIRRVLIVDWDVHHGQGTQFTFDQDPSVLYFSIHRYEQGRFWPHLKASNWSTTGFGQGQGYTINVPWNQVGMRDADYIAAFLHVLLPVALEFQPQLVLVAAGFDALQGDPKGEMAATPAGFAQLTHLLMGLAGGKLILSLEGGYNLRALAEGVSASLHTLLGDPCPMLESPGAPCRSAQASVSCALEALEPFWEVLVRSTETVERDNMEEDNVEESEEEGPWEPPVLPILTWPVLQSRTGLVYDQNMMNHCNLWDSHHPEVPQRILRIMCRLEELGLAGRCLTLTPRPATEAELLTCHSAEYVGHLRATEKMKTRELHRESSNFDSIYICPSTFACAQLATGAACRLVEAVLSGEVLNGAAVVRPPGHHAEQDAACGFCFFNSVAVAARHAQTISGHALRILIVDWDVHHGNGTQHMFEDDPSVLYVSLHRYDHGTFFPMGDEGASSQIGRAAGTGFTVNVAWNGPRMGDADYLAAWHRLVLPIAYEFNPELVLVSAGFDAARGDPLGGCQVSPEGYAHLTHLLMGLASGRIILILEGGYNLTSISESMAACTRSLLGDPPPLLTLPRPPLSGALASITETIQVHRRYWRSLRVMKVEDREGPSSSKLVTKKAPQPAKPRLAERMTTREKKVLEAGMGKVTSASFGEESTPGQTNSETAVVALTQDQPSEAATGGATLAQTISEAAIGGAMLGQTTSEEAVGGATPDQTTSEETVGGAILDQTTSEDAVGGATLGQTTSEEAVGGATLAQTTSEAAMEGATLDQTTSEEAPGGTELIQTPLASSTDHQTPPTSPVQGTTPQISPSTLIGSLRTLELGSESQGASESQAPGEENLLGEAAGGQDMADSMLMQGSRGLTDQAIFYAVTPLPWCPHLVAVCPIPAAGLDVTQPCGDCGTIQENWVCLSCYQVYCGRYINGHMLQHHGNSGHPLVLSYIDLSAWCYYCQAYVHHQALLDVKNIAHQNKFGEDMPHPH
property.measured: pIC50
Value format note: pIC50 is -log10 of concentration (mol/L); just state the number.

Problem: // returns reported pIC50 for input `O=C(NO)N/C=C/c1ccc(-c2ccccc2)cc1`
Result: 5.98

====

Assay: cells
Format: functional, cell-based
Conditions: Homo sapiens, NCI-H460, 72 h
Description: Growth inhibition of human H460 cells after 72 hrs
pIC50: −log10 of the molar value.
property.measured: pIC50

Solved entries:
O=C(O)/C=C/c1ccc(-c2ccccc2)cc1	< 4.70
O=C(N/C=C/c1ccc(-c2ccccc2)cc1)NOCc1ccccc1	< 4.70
O=C(NO)N/C=C/c1ccc(-c2ccccc2)cc1	5.02
O=C(/C=C/c1ccc(-c2ccccc2)cc1)NO	5.27
O=C1/C(=C/c2ccc(-c3ccccc3)cc2)CCN1O	< 4.70

Problem: // returns reported pIC50 for input `NNC(=O)N/C=C/c1ccc(-c2ccccc2)cc1`
Result: < 4.70

Problem: One more compound: `NNC(=O)/C=C/c1ccc(-c2ccccc2)cc1`
Result: < 4.70

Problem: One more compound: `CC(=O)SCC(=O)/C=C/c1ccc(-c2ccccc2)cc1`
Result: < 4.70

Problem: One more compound: `N#CSC/C=C/c1ccc(-c2ccccc2)cc1`
Result: 5.03
